Every entry's value here was drawn from ChEMBL document CHEMBL4811258.

test: Oral bioavailability in Sprague-Dawley rat at 31 mg/kg measured up to 24 hrs; assay type: ADME, organism-based; settings: in vivo
ASSAY METRIC: bioavailability (%)
Give bare numbers, in %.

Param item = Cc1c(Cc2ccc(C(F)(F)F)nc2)c[nH]c1C(=O)NC(C)c1cn[nH]c1 (stereo in doubt; form 1) ; retrieve measured bioavailability.
10

###

assay: AUC (0 to infinity) in Sprague-Dawley rat at 31 mg/kg, po measured up to 24 hrs; format: ADME, organism-based; parameters: route oral, dose 31 mg/kg, time <=24; details: in vivo
ASSAY METRIC: AUC(0-inf)
Numeric answer plus unit only.

Return reported AUC(0-inf); argument: Cc1c(Cc2ccc(C(F)(F)F)nc2)c[nH]c1C(=O)NC(C)c1cn[nH]c1 (stereo in doubt; form 1)
22 µM·h
